# system: SARS-CoV-2 RBD.mmh (Spike amino acids Arg319-Phe541 with C-terminal myc-myc-6-Histidine tag) (SARS-CoV-2, UniProt P0DTC2 319-541)
Assign pIC50 to each entry below.
// scale note: pIC50 = -log10(conc_M); give the bare number

Prompt: Value lookup for pIC50; key = mAb15158 (antibody, V domains shown) VH: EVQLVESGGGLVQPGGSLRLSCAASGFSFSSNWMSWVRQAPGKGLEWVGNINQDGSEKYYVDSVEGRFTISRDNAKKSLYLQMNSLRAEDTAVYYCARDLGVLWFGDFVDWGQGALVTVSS VL: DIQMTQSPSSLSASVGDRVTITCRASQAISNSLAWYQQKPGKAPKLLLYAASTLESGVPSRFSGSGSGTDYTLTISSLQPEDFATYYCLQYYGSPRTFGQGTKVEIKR
Response: 9.51

Prompt: Value lookup for pIC50; key = mAb15166 (antibody, V domains shown) VH: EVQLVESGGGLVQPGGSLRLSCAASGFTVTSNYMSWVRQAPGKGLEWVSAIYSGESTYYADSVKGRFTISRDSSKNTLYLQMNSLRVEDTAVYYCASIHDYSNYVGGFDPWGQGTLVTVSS VL: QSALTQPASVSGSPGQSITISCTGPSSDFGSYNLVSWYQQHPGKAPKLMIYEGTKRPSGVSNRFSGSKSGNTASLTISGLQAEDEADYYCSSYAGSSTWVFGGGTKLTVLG
Response: 9.32

Prompt: Value lookup for pIC50; key = mAb14255 (antibody, V domains shown) VH: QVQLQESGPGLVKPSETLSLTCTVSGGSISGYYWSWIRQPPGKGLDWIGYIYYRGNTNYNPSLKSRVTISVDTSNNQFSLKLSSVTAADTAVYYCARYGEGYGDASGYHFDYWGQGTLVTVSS VL: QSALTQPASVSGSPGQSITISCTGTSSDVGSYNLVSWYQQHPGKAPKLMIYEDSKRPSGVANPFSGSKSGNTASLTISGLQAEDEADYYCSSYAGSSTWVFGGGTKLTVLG
Response: 9.80

Prompt: Value lookup for pIC50; key = mAb15165 (antibody, V domains shown) VH: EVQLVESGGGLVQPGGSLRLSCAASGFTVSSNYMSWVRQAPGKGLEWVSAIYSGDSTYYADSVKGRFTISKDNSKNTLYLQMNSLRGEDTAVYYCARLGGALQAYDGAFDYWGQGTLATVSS VL: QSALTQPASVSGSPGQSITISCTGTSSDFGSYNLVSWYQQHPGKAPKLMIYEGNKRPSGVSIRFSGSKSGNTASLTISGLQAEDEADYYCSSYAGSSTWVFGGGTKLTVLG
Response: 9.72

Prompt: Value lookup for pIC50; key = mAb14285 (antibody, V domains shown) VH: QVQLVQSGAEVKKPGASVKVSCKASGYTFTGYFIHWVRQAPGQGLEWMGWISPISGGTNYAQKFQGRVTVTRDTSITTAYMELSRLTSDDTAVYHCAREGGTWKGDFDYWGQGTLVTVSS VL: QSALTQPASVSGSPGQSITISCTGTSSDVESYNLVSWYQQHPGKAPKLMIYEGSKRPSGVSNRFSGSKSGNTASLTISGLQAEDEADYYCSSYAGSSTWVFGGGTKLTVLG
Response: 8.77

Data origin: patent US20260069689A1
